- measured target: human 5-hydroxytryptamine-2C (h5-HT2C) receptor (Homo sapiens)
- Construct: expressed in transfected cells; host or cells: CHO (Chinese Hamster Ovary) cells; membranes
- Sequence (P28335 33-458): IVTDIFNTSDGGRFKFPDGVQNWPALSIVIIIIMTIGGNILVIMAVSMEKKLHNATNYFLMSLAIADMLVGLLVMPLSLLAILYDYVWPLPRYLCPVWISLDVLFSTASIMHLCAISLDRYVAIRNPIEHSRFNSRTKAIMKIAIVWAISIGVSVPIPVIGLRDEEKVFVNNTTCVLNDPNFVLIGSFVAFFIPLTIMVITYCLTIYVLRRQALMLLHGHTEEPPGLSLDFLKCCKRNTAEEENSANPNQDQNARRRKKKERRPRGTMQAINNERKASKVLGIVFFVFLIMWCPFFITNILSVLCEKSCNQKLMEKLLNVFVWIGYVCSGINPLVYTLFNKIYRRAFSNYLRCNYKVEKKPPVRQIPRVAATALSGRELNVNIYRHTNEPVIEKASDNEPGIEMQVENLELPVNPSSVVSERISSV
- assay comment: [125I]DOI binding to membranes of CHO cells expressing the human 5-HT2C receptor
- run parameters: [125I]DOI radioligand, CHO cell membranes, room temperature 60 min; read-out: 5-HT2C Affinity Ki
readout type: pKi
Give bare numbers, as −log10 of the molar value.

The cases that follow already have their pKi on record.
{"compound": "CNCC1Cc2cc(-c3cccc(C(F)(F)F)c3)cc(F)c2O1 (racemic)", "measured target": "human 5-hydroxytryptamine-2C (h5-HT2C) receptor (Homo sapiens)", "pKi": 5.95}
{"compound": "NCC1Cc2cccc(-c3cccc(Cl)c3)c2O1 (single isomer, unassigned; (+)) [Example 66]", "measured target": "human 5-hydroxytryptamine-2C (h5-HT2C) receptor (Homo sapiens)", "pKi": 8.30}
{"compound": "NCC1Cc2cc(C(F)(F)F)cc(-c3cccc(Cl)c3)c2O1 (racemic)", "measured target": "human 5-hydroxytryptamine-2C (h5-HT2C) receptor (Homo sapiens)", "pKi": 6.97}
{"compound": "COc1ccc(-c2cc(Cl)cc3c2OC(CN)C3)c(OC)c1 (racemic)", "measured target": "human 5-hydroxytryptamine-2C (h5-HT2C) receptor (Homo sapiens)", "pKi": 9.05}

Dear colleague, could you send me pKi for each of the items below? Thanks.
1. COc1ccc(-c2cccc3c2OC(CN)C3)c(OC)c1 (single isomer, unassigned; (-)) [Example 144]
2. CNCC1Cc2cc(OC)cc(-c3ccccc3C)c2O1 (racemic)
3. COc1ccc(-c2cccc3c2OC(CN)C3)cc1 (single isomer, unassigned; (-)) [Example 81]
4. CNCC1Cc2cc(-c3ccccc3)cc(-c3ccc(C)cc3)c2O1 (racemic)

Ans.
1. 8.21
2. 7.96
3. 7.62
4. 5.94

Dear colleague, could you send me pKi for each of the items below? Thanks.
1. NCC1Cc2cccc(-c3ccc(C(F)(F)F)cc3)c2O1 (single isomer, unassigned; (-)) [Example 138]
2. Cc1cccc(C)c1-c1cc(C(F)(F)F)cc2c1OC(CN)C2 (racemic)
3. Cc1ccc(-c2cccc3c2OC(CN)C3)cc1 (racemic) [Example 70]
4. NCC1Cc2cccc(Nc3cccc(Cl)c3)c2O1 (racemic)
5. CCNC[C@H]1Cc2cc(F)cc(-c3c(Cl)cccc3Cl)c2O1
6. CNCC1Cc2cc(-c3ccccc3)cc(-c3ccccc3C)c2O1 (racemic)
7. CNCC1Cc2cc(-c3ccc(F)cc3)cc(F)c2O1 (racemic)

Ans.
1: 8.13; 2: 7.85; 3: 8.70; 4: 6.73; 5: 8.64; 6: 6.61; 7: 6.31
